// data source = patent US12129279B2

Tested on: MDRAB (multidrug-resistant Acinetobacter baumannii)
Type: cell-based
experimental.context: MDRAB (multidrug-resistant, 2 h)
Description: The antimicrobial activities of dK1, dK2, dK3, dK4 and dK5 were determined by bactericidal assays on laboratory strains of MRSA (methicillin-resistant Staphylococcus aureus) and MDRAB (multidrug-resistant Acinetobacter baumannii). The bacteria were inoculated in Luria broth (LB) solid medium (BioShop Canada Inc., Ontario, Canada) (Focus Bioscience, Murrarrie, Australia). […]
No end group written: not given here.
measured.endpoint: IC50

[[record]]
item_sequence = "IVRRIWRAWARRVRLVARIPAV [dK1]"
test_value = "~167 nM"

[[record]]
item_sequence = "RPFIVRAWRRAVARRARAILPI [dK3]"
test_value = "195 to 390 nM"

[[record]]
item_sequence = "FLAIPSKPLKVAKPLGFALIIL [dK5]"
test_value = "20000 to 25000 nM"

[[record]]
item_sequence = "RLIAAWRAVIRARVRARRAPIF [dK2]"
test_value = "200 to 250 nM"


* * *

measurement.notes: in vitro
Type: cell-based
experimental.context: human
No end group written: not given here.
measured.endpoint: cytotoxicity at 4 h, 2 μM (%)

[[record]]
item_sequence = "RPFIVRAWRRAVARRARAILPI [dK3]"
test_value = 50

